- Tested on: TK-10 renal
- Method: NCI tumour cell line growth inhibition, 384-well format
Metric: TGI (µM)
Your answer is read as µM, so omit the unit and give the number.

Checklist item: TGI tested on TK-10 renal, entry CNC(=O)n1ccc2cc(Oc3ccnc(NC(=O)c4ccc(C5CCN(CCO)CC5)cc4)c3)c(OCCOC)cc21 , value?
4.44

Value wanted: TGI (TK-10 renal) of entry COC1(C(=O)N[C@@H](C)c2ccc(-n3cc(F)cn3)nc2)CCC(c2nc(C)cc(Nc3cc(C)[nH]n3)n2)CC1 (some centres undefined)
3.93

What value of TGI on TK-10 renal does C[C@@H](C(=O)Nc1ccc(Cl)cc1)C1CCC(c2ccnc3ccc(F)cc23)CC1 (some centres undefined) have?
86.2

----------
- Test system: HOP-62 NSCLC
- Method: NCI tumour cell line growth inhibition, 384-well format
The following compounds are listed with their measured TGI values.
Provide only the numeric value, understood in µM.

C[C@@H](C(=O)Nc1ccc(Cl)cc1)C1CCC(c2ccnc3ccc(F)cc23)CC1 (some centres undefined)    29.5
COC1(C(=O)N[C@@H](C)c2ccc(-n3cc(F)cn3)nc2)CCC(c2nc(C)cc(Nc3cc(C)[nH]n3)n2)CC1 (some centres undefined)    6.13
CNC(=O)n1ccc2cc(Oc3ccnc(NC(=O)c4ccc(C5CCN(CCO)CC5)cc4)c3)c(OCCOC)cc21    4.61

Moving on to the next compound.
Notebook: pull reported TGI for HOP-62 NSCLC, entry CC(C)(C)C[C@H]1NC(C(=O)NCC[C@H](O)CO)[C@H](c2cccc(Cl)c2)[C@@]12C(=O)Nc1cc(Cl)c(F)cc12 (some centres undefined)
30.2

----------
- Tested on: A498 renal
- Method: NCI tumour cell line growth inhibition, 384-well format
Metric: TGI (µM)
Report the value in µM with no unit label.

CNC(=O)n1ccc2cc(Oc3ccnc(NC(=O)c4ccc(C5CCN(CCO)CC5)cc4)c3)c(OCCOC)cc21    2.96

Field request: TGI | item: C[C@@H](C(=O)Nc1ccc(Cl)cc1)C1CCC(c2ccnc3ccc(F)cc23)CC1 (some centres undefined)
21.1

Entry C[C@H](Nc1ncnc2nc[nH]c12)c1cc2cccc(Cl)c2c(=O)n1-c1ccccc1 has what TGI?
12.8

I would be grateful if you could share the reported TGI for CC(C)(C)C[C@H]1NC(C(=O)NCC[C@H](O)CO)[C@H](c2cccc(Cl)c2)[C@@]12C(=O)Nc1cc(Cl)c(F)cc12 (some centres undefined) .
11.7

----------
- Test system: NCI-H226 lung
- Method: NCI tumour cell line growth inhibition, 384-well format; in the data active means GI50 below about 0.43 µM; inactive means the rest
Your response should consist of one outcome taken from t for active, f for inactive

Field: example entries. Status: answers known.
C[C@@H](C(=O)Nc1ccc(Cl)cc1)C1CCC(c2ccnc3ccc(F)cc23)CC1 (some centres undefined)    f
CNC(=O)n1ccc2cc(Oc3ccnc(NC(=O)c4ccc(C5CCN(CCO)CC5)cc4)c3)c(OCCOC)cc21    t
CC(C)(C)C[C@H]1NC(C(=O)NCC[C@H](O)CO)[C@H](c2cccc(Cl)c2)[C@@]12C(=O)Nc1cc(Cl)c(F)cc12 (some centres undefined)    f

// param item: COC1(C(=O)N[C@@H](C)c2ccc(-n3cc(F)cn3)nc2)CCC(c2nc(C)cc(Nc3cc(C)[nH]n3)n2)CC1 (some centres undefined) ; yields the recorded call
t
